Provide the reported Binding Signal (fold over 6E7 parental antibody) of each item.
Target: T1, human TREM2 (triggering receptor expressed on myeloid cells 2) (human) (UniProt Q9NZC2)
T1 sequence (looked up): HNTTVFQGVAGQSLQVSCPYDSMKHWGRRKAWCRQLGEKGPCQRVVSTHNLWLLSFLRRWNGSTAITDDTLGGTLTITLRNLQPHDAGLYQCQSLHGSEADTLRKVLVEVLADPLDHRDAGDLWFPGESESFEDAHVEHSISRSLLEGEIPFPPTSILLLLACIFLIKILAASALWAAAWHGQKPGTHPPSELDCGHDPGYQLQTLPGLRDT
Assay: 1st screen, 110 nM Ab
Answer in fold, number only, no unit symbol.

Report Binding Signal (fold over 6E7 parental antibody), nothing else, for this binder: 6E7 antibody affinity modulation variant V56 (antibody, V domains shown) VH: EVQLVQSGAEVKKPGESLKISCKGSGYSFTSYWIAWVRQMPGKGLEWMGIIYPGDSDTRYQPSFQGQVTISADKSISTAYLQWSSLKASDTAMYFCARQRTFYYDSSDYFDYWGQGTLVTVSS VL: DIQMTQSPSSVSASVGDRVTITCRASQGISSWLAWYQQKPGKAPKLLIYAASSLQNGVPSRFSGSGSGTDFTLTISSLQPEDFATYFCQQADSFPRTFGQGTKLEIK
0.23

Report Binding Signal (fold over 6E7 parental antibody), nothing else, for this binder: 6E7 antibody affinity modulation variant V8 (antibody, V domains shown) VH: EVQLVQSGAEVKKPGESLKISCKGSGYSFTSYWIAWVRQMPGKGLEWMGIIYPGDSDTKYSPSFQGQVTISADKSISTAYLQWSSLKASDTAMYFCARQRTFYYDSSDYFDYWGQGTLVTVSS VL: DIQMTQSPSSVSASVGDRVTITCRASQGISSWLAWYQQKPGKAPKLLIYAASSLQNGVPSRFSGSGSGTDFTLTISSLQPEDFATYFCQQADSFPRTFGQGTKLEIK
0.28

Report Binding Signal (fold over 6E7 parental antibody), nothing else, for this binder: 6E7 antibody affinity modulation variant V31 (antibody, V domains shown) VH: EVQLVQSGAEVKKPGESLKISCKGSGYSFTSYWIAWVRQMPGKGLEWMGIIYPGDSETRYSPSFQGQVTISADKSISTAYLQWSSLKASDTAMYFCARQRTFYYDSSDYFDYWGQGTLVTVSS VL: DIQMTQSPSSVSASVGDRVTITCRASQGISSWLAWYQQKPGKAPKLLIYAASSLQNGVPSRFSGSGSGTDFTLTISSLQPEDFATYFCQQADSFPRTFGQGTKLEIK
0.61

Source of measurements: patent US20250019437A1
